These entries and their values trace back to patent US20180355059A1.

target: T1, recombinant human PCSK9 protein, His-tagged (Immunogen A, hPCSK9-His) (human, UniProt Q8NBP7 31-692, limits assumed, biotin-labelled in the ELISA and blocking assays (Biotin labeling kit)); assay: ELISA, biotin-hPCSK9-His on streptavidin plate; antibody 0.67 nM
T1 construct: also called human PCSK9-His; recombinant hPCSK9-His; not shown: His tag
Below, each entry is listed alongside its reported OD450 nm.
// note: answer is a bare numeric in OD450 nm

Guide cases for OD450 nm, answers given:
>  <BINDER>
74C10A8, chimeric anti-PCSK9 mAb purified from hybridoma (antibody, V domains shown, From Harbour H2L2 mice: human variable regions, rat constant regions) VH: QVQLQESGPGLVKPSETLSLTCSVSGGSINTYYWSWIRQPPGKGLEWIGYIYYSGSTNYNPSLKSRVTISVDTSKNQFSLKLTSVTAADTAVYYCARERFTMVRGVMMDYYYYGMDVWGQGTTVTVSS VL: DIQLTQSPSFLSASVGDRVTITCRASQGISSYLAWYQQKPGKAPKLLIYAASTLQSGVPSRFSGSGSGTEFTLTISSLQPEDFATYYCQQLNSYPRTFGQGTKVEIK

>  <OD450 nm / OD450 nm>
2.89

$$$$
>  <BINDER>
152G2F7, chimeric anti-PCSK9 mAb purified from hybridoma (antibody, V domains shown, From Harbour H2L2 mice: human variable regions, rat constant regions) VH: EVQLVESGGGLVQPGGSLRLSCAASEFTFGGYWMTWVRQAPGKGLEWVANIKQDGSEKYYVDSVKGRFTISRDNAKNSLYLHMNSLRAEDTAVYYCARDRTTMIRGVSLYYYYYGMDVWGQGTAVTVSS VL: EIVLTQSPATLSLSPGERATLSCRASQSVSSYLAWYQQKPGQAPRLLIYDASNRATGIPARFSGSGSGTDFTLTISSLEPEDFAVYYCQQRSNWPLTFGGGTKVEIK

>  <OD450 nm / OD450 nm>
2.42

$$$$

Switching to the query record.
Inquiry: Give its OD450 nm value. Item: 139G1C5, chimeric anti-PCSK9 mAb purified from hybridoma (antibody, V domains shown, From Harbour H2L2 mice: human variable regions, rat constant regions) VH: QVQLQESGPGLVKPSGTLSLTCAVSGGSISRNNWWSWVRQPPGKGLEWIGEIYHSGSTNYNPSLKSRVTISVDKSKNQFSLKLSSVTAADTAVYYCARDLLGIGLDYWGQGTLVTVSS VL: EFVLTQSPATLSLSPGERAILSCRASQSFSSYIAWYQQKPGQAPRLLIYDASNRATGIPARFSGSGSGTDFTLTISSLEPEDFAVYYCQQHSNWMYTFGQGTKLEIK
Reply text: 2.87
